assay_summary: Rate of hydrolysis of test compounds to 4H-furo[3,2-b]pyrrole-5-carboxylic acid in pH 7.4 and 2.0 aqueous solutions
Format: physicochemical
condition_notes: 0.05 M sodium phosphate buffer pH 7.4, 0.013 mg/mL, over 6 hours, HPLC
quantity_kind: Hydrolysis rate at pH 7.4 (%/hr)

> print(dat)
                                   compound              quantity.kind  experimental.value
1        Cc1oc(=O)oc1COC(=O)c1cc2occc2[nH]1  Hydrolysis rate at pH 7.4                0.20
2  CC(OC(=O)c1cc2occc2[nH]1)OC(=O)C(C)C (stereo not drawn) [Compound 31b]  Hydrolysis rate at pH 7.4                3.46
